The reported numbers originate from PubChem BioAssay.

# target_system: Voltage-gated potassium channel subunit beta-2 (Rattus norvegicus) (UniProt P62483)
# Sequence (P62483 whole entry, looked up): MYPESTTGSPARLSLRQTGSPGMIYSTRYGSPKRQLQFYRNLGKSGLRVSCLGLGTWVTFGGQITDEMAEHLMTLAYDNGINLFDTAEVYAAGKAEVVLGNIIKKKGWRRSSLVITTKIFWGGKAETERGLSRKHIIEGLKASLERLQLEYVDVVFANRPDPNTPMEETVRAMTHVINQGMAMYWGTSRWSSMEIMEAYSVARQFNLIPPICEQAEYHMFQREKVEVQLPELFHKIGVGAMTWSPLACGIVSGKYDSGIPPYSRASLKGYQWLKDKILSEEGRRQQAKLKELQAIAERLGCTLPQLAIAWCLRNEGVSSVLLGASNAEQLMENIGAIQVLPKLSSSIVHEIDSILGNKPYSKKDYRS
# assay_remarks: inhibitors of rat Kvbeta2 reductase activity – biochemical, NADPH fluorescence, primary screen (AID 622);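 further: slope of raw intensity against log time taken from 70 to 1610 s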
# experimental_setup: recombinant KvBeta, 4-cyanobenzaldehyde reduction, at 10 µM, active compounds read high
# maps each entry to its fluorescence slope

{"columns": ["compound", "target_system", "fluorescence slope"],
 "data": [
  ["COc1ccc2cc(CN(CCO)C(=O)c3ccc(Br)cc3)c(=O)[nH]c2c1", "Voltage-gated potassium channel subunit beta-2 (Rattus norvegicus) (UniProt P62483)", -0.613],
  ["CCCCC(NC(C)=O)c1nc2ccccc2n1CCC (stereo unspecified)", "Voltage-gated potassium channel subunit beta-2 (Rattus norvegicus) (UniProt P62483)", -0.454],
  ["CCOc1ccc(N(CC(=O)NC2CCCC(C)C2C)S(=O)(=O)c2c(C)noc2C)cc1 (stereo unspecified)", "Voltage-gated potassium channel subunit beta-2 (Rattus norvegicus) (UniProt P62483)", -0.612],
  ["Cc1ccc(NC(=O)CC2Nc3ccccc3NC2=O)cc1Cl (stereo unspecified)", "Voltage-gated potassium channel subunit beta-2 (Rattus norvegicus) (UniProt P62483)", -0.545],
  ["Cc1ccc(N2CC(C(=O)Nc3nnc(C)s3)CC2=O)cc1 (stereo unspecified)", "Voltage-gated potassium channel subunit beta-2 (Rattus norvegicus) (UniProt P62483)", -0.542],
  ["CCc1ccc(C2CC(c3cccc(OC)c3)n3nc(N)nc3N2)cc1 (stereo unspecified)", "Voltage-gated potassium channel subunit beta-2 (Rattus norvegicus) (UniProt P62483)", -0.599],
  ["COC(=O)Cn1c(=NC(=O)CSCC(=O)Nc2cc(C)on2)sc2ccccc21", "Voltage-gated potassium channel subunit beta-2 (Rattus norvegicus) (UniProt P62483)", -0.417],
  ["COc1ccccc1NC(=O)N(Cc1ccco1)Cc1cc2c(C)ccc(C)c2[nH]c1=O", "Voltage-gated potassium channel subunit beta-2 (Rattus norvegicus) (UniProt P62483)", -0.463],
  ["O=C(c1ccco1)N1CCN(S(=O)(=O)c2ccc(C3CCCCC3)cc2)CC1", "Voltage-gated potassium channel subunit beta-2 (Rattus norvegicus) (UniProt P62483)", -0.501],
  ["CCSc1nc(O)c(CC)c(=O)n1C(C)CC (stereo unspecified)", "Voltage-gated potassium channel subunit beta-2 (Rattus norvegicus) (UniProt P62483)", -0.556],
  ["CCc1cc2c(NCCC(=O)O)nc(C)nc2s1", "Voltage-gated potassium channel subunit beta-2 (Rattus norvegicus) (UniProt P62483)", -0.575]
]}
